Reference for the values: PubChem BioAssay AID1476

Molecular target: Cruzipain (Trypanosoma cruzi) (UniProt P25779)
Sequence (P25779 123-467 limits assumed): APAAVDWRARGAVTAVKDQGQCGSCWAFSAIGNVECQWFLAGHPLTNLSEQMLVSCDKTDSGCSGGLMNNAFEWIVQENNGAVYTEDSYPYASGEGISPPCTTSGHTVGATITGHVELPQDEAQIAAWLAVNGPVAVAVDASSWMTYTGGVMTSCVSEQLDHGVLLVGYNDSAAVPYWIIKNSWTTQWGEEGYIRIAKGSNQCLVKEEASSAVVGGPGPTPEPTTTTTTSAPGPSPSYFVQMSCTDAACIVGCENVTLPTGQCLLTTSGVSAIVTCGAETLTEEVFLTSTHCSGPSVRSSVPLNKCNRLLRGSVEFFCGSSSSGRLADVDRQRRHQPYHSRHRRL
Experiment: qHTS Assay for Promiscuous and Specific Inhibitors of Cruzain (without detergent);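 further: plate controls were enzyme without inhibitor for no effect and buffer without enzyme for full effect; nearly all actives have a fitted effect of over 40% in size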
Conditions: purified cruzain, Z-FR-AMC fluorescence, no detergent
The campaign covered roughly 200,000 compounds. About 4,500 (2.2%) were called active. Roughly 12% stayed inconclusive and do not appear here. For the sample, actives were picked, then their nearest neighbours and some compounds at random.
Listed here are compounds together with their documented max response, negative = inhibition.
Enter your answer as a number in %; do not include the unit.

Answered cases to consult:
compound	targetOrSystem	outputUnit	max response, negative = inhibition
Cc1ccc(Cn2c(C)c3cnn(CC(=O)NCc4ccccc4)c(=O)c3c2C)cc1	Cruzipain (Trypanosoma cruzi) (UniProt P25779)	%	-6.45
O=C(Nc1cccc([N+](=O)[O-])c1)c1ccc2c(c1)OCO2	Cruzipain (Trypanosoma cruzi) (UniProt P25779)	%	4.82
Cc1nnc(SCC(=O)N2c3ccccc3C(C)(c3ccc(Cl)cc3)CC2(C)C)s1 (stereo not given)	Cruzipain (Trypanosoma cruzi) (UniProt P25779)	%	-0.125
Cc1nn(-c2ccccn2)c2c1C(c1ccncc1)C1=C(CC(C)(C)CC1=O)N2 (stereo not given)	Cruzipain (Trypanosoma cruzi) (UniProt P25779)	%	-9
O=C(CCSCc1ccccc1F)N1CCN(c2ccc(Cl)cc2)CC1	Cruzipain (Trypanosoma cruzi) (UniProt P25779)	%	2.72
Cc1ccc(S(=O)(=O)n2nc(C)c(S(=O)(=O)N3CCCCCC3)c2C)cc1	Cruzipain (Trypanosoma cruzi) (UniProt P25779)	%	-10.4
CC1CCc2noc(NC(=O)c3ccc([N+](=O)[O-])cc3)c2C1 (stereo not given)	Cruzipain (Trypanosoma cruzi) (UniProt P25779)	%	3.94
O=C(CSc1oc(-c2ccco2)nc1S(=O)(=O)c1ccc(Cl)cc1)c1ccccc1	Cruzipain (Trypanosoma cruzi) (UniProt P25779)	%	10.2

Prompt line: I would be grateful if you could share the reported max response, negative = inhibition for Cc1ccc(Cl)cc1NC(=O)NC1COc2ccccc2C1 (stereo not given) .
Response line: -7.18

Prompt line: Which measured max response, negative = inhibition value corresponds to CC(=C1C(=O)c2ccccc2C1=O)N1CCN(c2ccccn2)CC1 ?
Response line: -6.99
